# Tested on: UACC-62 melanoma
# Procedure details: NCI tumour cell line growth inhibition, 48 h
Measured endpoint: TGI (µM)
Expressed in µM, but write only the number.

Example entries and their recorded answers appear below.
INSERT INTO results (smiles_data, measured_endpoint, observed) VALUES
  ('CN(CCNC(=O)c1nn(-c2ccccc2)c2c1Cc1ccccc1-2)CCNC(=O)c1nn(-c2ccccc2)c2c1Cc1ccccc1-2', 'TGI', 3.1),
  ('NS(=O)(=O)c1ccc(-n2nc(-c3ccc(Cl)cc3)cc2-c2cc(O)ccc2O)cc1', 'TGI', 19.2),
  ('N=C1C(c2nc3ccccc3s2)=C(O)CN1c1ccc(F)c(Cl)c1', 'TGI', 52.7),
  ('CCN(CC)c1c(C(=O)/C=C/c2ccc(Cl)cc2)c(-c2ccccc2)nn(C)c1=O', 'TGI', 3.31);

With those in mind, consider the next compound.
Give TGI for Cc1ccc(S(=O)(=O)N2CCC(=O)c3cc(Br)ccc32)cc1 tested on UACC-62 melanoma.
18.3

###

# System: NCI-H23 lung
# Procedure details: NCI tumour cell line growth inhibition, 48 h
Measured endpoint: TGI

Example entries and their recorded answers appear below.
INSERT INTO results (compound, measured_endpoint, observed) VALUES
  ('CCN1CCC(O)(c2ccc(Oc3ccccc3)cc2)C(C(=O)c2ccc(Oc3ccccc3)cc2)C1 (configuration not stated)', 'TGI', '27.7 µM'),
  ('CCN(CC)c1c(C(=O)/C=C/c2ccc(Cl)cc2)c(-c2ccccc2)nn(C)c1=O', 'TGI', '3.1 µM'),
  ('Cc1c[n+](=O)c2ccccc2n1[O-]', 'TGI', '> 100 µM');

Specify TGI for O=C1NCC(CSc2nc3cc(C4CCCc5c4[nH]c4ccccc54)ccc3o2)N1 (configuration not stated) and stop.
> 100 µM

Specify TGI for O=c1ccn2n1Cc1ccccc1C2 and stop.
> 100 µM

###

# Test system: RXF 393 renal
# Procedure details: NCI tumour cell line growth inhibition, 48 h
Measured endpoint: GI50

INSERT INTO measurements (molecule, measured_endpoint, observed) VALUES
  ('O=C1C(Cl)=C(Nc2cccc(F)c2)C(=O)N1Cc1ccc(Cl)cc1', 'GI50', '0.39 µM');

Give GI50 for CC(=O)NC1C(OC[C@@H](CC(=O)N[C@@H](CC(=O)O)CC(=O)N[C@H](CC(=O)N[C@@H](CCCN)CC(=O)N[C@@H](CCCN)CC(=O)N[C@H](CC(N)=O)C(C)C)C(C)C)NC(=O)C[C@@H](N)C(C)C)OC(CO)C(O)C1O (stereo not given in full) tested on RXF 393 renal.
> 100 µM

Give GI50 for CC[C@@H]1c2c(C#N)ncn2-c2cnc(Nc3ccc(C(=O)NC4CCN(C5CCN(CC6CC6)CC5)CC4)cc3OC)nc2N1C1CCCC1 tested on RXF 393 renal.
0.0462 µM

Give GI50 for N#Cc1ccc(OCc2nc(N)nc(N)c2-c2ccc(Cl)c(Cl)c2)cc1 tested on RXF 393 renal.
0.597 µM

Give GI50 for C=C1C(=O)O[C@H]2[C@H]1CC/C(CNC(=O)/C=C/c1cc(OC)c(OC)c(OC)c1)=C\CC[C@@]1(C)O[C@@H]21 tested on RXF 393 renal.
0.298 µM

Give GI50 for ClCc1cccc2c(CCl)cccc12 tested on RXF 393 renal.
3.33 µM

Give GI50 for COc1cc(/C=C\c2cc(OC)c(OC)c(OC)c2)cc(NC(=O)/C=C/c2cc(OC)c(OC)c(OC)c2)c1OC tested on RXF 393 renal.
4.77 µM

Give GI50 for Cc1cccc(/C=C/c2c(C(=O)/C=C/c3ccccc3)c(C)nc3ccccc23)c1 tested on RXF 393 renal.
1.51 µM

Give GI50 for COc1ccc(C(=S)N2CCN(c3cccc(C)c3)CC2)cc1OC tested on RXF 393 renal.
6.05 µM

Give GI50 for COc1ccc(-c2nn(-c3cccc(Cl)c3)cc2-c2cc(-c3cccs3)[nH]c(=S)n2)cc1 tested on RXF 393 renal.
3.76 µM

Give GI50 for Cc1nnn[n-]1.N.N.N.N.N.[Cl-].[Co+3] tested on RXF 393 renal.
> 100 µM

Give GI50 for C=CCN=c1sc2c(n1NC(=O)c1cc3ccc1CCc1ccc(cc1)CC3)C(=O)c1ccccc1C2=O tested on RXF 393 renal.
1.35 µM

Give GI50 for O=C(Oc1cccc(F)c1OC(=O)c1cccc(O)c1)c1cccc(O)c1 tested on RXF 393 renal.
12.1 µM

Give GI50 for COc1cccc(N2CCN(CC(=O)N3CCN(c4nnc(-c5ccc(Cl)cc5)c(-c5ccc(Cl)cc5)n4)CC3)CC2)c1 tested on RXF 393 renal.
28.7 µM

Give GI50 for CCN(Cc1ccc(Cl)cc1)c1ccc(CO)c(Cl)c1 tested on RXF 393 renal.
2.07 µM
